Reference source: patent US5356926A

target: UniProtKB P12527; experiment: ARBL: 5-lipoxygenase (LTB4) in RBL-1 cells; format: cell-based; design: endogenous in cells; host or cells: RBL-1 (rat basophilic leukemia); details: Table 4; ARBL/ARBC IC50 (μM) or % inhibition at 10 μM; RBL-1 cells, A23187
Sequence (P12527 whole entry): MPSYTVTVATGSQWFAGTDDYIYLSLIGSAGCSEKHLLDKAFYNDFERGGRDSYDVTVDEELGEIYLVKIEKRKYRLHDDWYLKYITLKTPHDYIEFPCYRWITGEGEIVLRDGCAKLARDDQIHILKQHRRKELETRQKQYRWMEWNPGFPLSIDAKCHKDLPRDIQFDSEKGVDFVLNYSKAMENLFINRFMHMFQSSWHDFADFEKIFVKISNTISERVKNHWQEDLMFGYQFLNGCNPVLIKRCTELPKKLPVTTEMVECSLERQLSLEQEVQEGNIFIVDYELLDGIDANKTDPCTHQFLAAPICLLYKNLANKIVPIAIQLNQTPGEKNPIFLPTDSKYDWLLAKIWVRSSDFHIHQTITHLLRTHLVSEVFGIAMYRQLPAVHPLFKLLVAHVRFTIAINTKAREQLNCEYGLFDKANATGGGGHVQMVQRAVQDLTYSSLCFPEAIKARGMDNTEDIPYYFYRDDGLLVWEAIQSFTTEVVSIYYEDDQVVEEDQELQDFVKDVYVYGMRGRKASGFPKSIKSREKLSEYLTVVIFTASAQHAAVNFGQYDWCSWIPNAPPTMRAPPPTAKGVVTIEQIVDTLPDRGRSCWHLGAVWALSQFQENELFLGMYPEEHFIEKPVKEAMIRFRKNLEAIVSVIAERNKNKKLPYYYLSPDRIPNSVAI
Value Type: IC50 (µM)

[[record]]
molecule = "COc1ccc2sc(C(N)=O)c(OC(C)C)c2c1 [Example 1]"
system_name = "UniProtKB P12527"
value_type = "IC50"
measured_value = 36

[[record]]
molecule = "COc1ccc2sc(C(=O)Nc3ccc(C(=O)O)cc3)c(OC(C)C)c2c1 [Example 12]"
system_name = "UniProtKB P12527"
value_type = "IC50"
measured_value = 36


---

Attribute: inhibition at 33.3 µM
Test system: human neutrophil adhesion to TNFα, IL-1α, and LPS stimulated human umbilical vein endothelial cells
Assay: Modified method: inhibition of human neutrophil adhesion to TNF-stimulated HUVEC (calcein fluorescence)
Format: cell-based
Settings: Table 2, tested at a concentration of 33.3 μM (footnote a)
From the text: MODIFIED METHOD FOR DETERMINING THE INHIBITION OF HUMAN NEUTROPHIL ADHESION TO TNFα, IL-1α, AND LPS STIMULATED HUMAN UMBILICAL VEIN ENDOTHELIAL CELLS BY 3-ALKOXY-BENZO[b]THIOPHENE-2-CARBOXAMIDES The previous assay using ^51 Cr labeled human neutrophils has been modified. The neutrophils are now labeled with the fluorescent dye calcein. The current method allows for quantification of neutrophil adherence by fluorescence spectroscopy. […] Determination of Relative Fluorescence […]
State just the number; it will be interpreted in %.

[[record]]
compound = "CCOC(=O)Cc1csc(NC(=O)c2sc3ccc(OC)cc3c2OC(C)C)n1 [Example 38]"
value_type = "inhibition at 33.3 µM"
measured_value = 72

[[record]]
compound = "COc1ccc2sc(C(=O)Nc3ccc(C(=O)O)cn3)c(OC(C)C)c2c1 [Example 37]"
value_type = "inhibition at 33.3 µM"
measured_value = 8

[[record]]
compound = "COc1ccc2sc(C(=O)Nc3nc(CC(=O)O)cs3)c(OC(C)C)c2c1 [Example 39]"
value_type = "inhibition at 33.3 µM"
measured_value = 26

[[record]]
compound = "COc1ccc2sc(C(=O)Nc3ccc(C(=O)O)cc3OC)c(OC(C)C)c2c1 [Example 40]"
value_type = "inhibition at 33.3 µM"
measured_value = 34


Next:
Can you look up the measured inhibition at 33.3 µM of CCOC(=O)c1ccc(NC(=O)c2sc3ccc(OC)cc3c2OC(C)C)nc1 [Example 36] for me? 26
